From: patent US6028197A

Target: sterol 14-reductase (Rattus norvegicus)
Construct: microsome which was used as an enzyme source of sterol 14-reductase; from tissue; host or cells: liver microsomes of male Sprague-Dawley rats fed lovastatin and cholestyramine
Sequence (A0ACM8Q6X4 1-418): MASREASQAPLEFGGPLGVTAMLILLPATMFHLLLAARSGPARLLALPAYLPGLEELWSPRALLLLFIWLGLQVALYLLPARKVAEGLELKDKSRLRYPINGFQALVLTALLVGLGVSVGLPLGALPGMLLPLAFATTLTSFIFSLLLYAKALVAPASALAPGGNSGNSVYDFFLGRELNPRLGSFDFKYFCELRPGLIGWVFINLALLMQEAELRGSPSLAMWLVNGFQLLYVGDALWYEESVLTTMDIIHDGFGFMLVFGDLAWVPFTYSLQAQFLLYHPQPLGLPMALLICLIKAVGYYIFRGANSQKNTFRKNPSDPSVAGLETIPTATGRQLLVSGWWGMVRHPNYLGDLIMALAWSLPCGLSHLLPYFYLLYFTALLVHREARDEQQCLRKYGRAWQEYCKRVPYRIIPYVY
Experiment: Inhibition of sterol 14-reductase in rat liver microsomes
Format: biochemical
Details: read-out: Enzyme Activity (relative in vitro activity for sterol 14-reductase, IC50 class)
Give measured IC50 for each item. Keep answers brief.

• CCc1c2[n+](cc3c(OCn4nnc5ccccc54)c(OC)ccc13)CCc1cc(OC)c(OC)cc1-2 = 10 to 100 µM
• CCCCCCCCCCCCOc1c(OC)ccc2c(CC)c3[n+](cc12)CCc1cc2c(cc1-3)OCO2 = 10 to 100 µM
• CCc1c2[n+](cc3c(OCc4ccc(C(C)(C)C)cc4)c(OC)ccc13)CCc1cc(OC)c(OC)cc1-2 [Compound No. 69] = 10 to 100 µM
• CCc1c2[n+](cc3c(OCc4ccc(C(F)(F)F)cc4)c(OC)ccc13)CCc1cc3c(cc1-2)OCO3 = 10 to 100 µM
• CCc1c2[n+](cc3c(OCc4cc(OC)c(OC)cc4[N+](=O)[O-])c(OC)ccc13)CCc1cc3c(cc1-2)OCO3 = < 1 µM

Could I get IC50 for every one of these entries?
1. C=CCOc1c(OC)ccc2c(CC)c3[n+](cc12)CCc1cc(OC)c(OC)cc1-3
2. CCOc1cc2c(cc1OCC)-c1c(CC)c3ccc(OCC)c(OCc4ccc(Cl)nc4)c3c[n+]1CC2
3. CCc1c2[n+](cc3c(OCc4ccc(Cl)nc4)c(OC)ccc13)CCc1cc(OC)c(OC)cc1-2 [Compound No. 71]

Found:
> 100 µM
10 to 100 µM
10 to 100 µM

List the reported IC50 of each compound below.
1. CCc1c2[n+](cc3c(OCc4c(F)c(F)c(F)c(F)c4F)c(OC)ccc13)CCc1cc(O)c(O)cc1-2
2. CCCOc1cc2c(cc1OCCC)-c1c(CC)c3ccc(OCCC)c(OCc4c(F)c(F)c(F)c(F)c4F)c3c[n+]1CC2
3. CCc1c2[n+](cc3c(OCc4ccc(C(F)(F)F)cc4)c(OC)ccc13)CCc1cc(OC)c(OC)cc1-2

Found:
1. 10 to 100 µM
2. 10 to 100 µM
3. < 1 µM

// for each compound below, give its IC50
1. CCc1c2[n+](cc3c(OCc4ccc(OC)cc4)c(OC)ccc13)CCc1cc(OC)c(OC)cc1-2
2. CCc1c2[n+](cc3c(OCc4cccc([N+](=O)[O-])c4C)c(OC)ccc13)CCc1cc(OC)c(OC)cc1-2
3. CCOc1cc2c(cc1OCC)-c1c(CC)c3ccc(OC)c(OCc4c(F)c(F)c(C(F)(F)F)c(F)c4F)c3c[n+]1CC2

Found:
["> 100 µM", "> 100 µM", "< 1 µM"]
